- Test system: HRV16
- EXPERIMENT_DESCRIPTION: HRV16 HELA EC50 (cytopathic effect in H1-HeLa cells)
- Type: cell-based
- MEASUREMENT_CONTEXT: 96 h, H1-HeLa cells, 33° C., read-out: HRV16 HELA EC50
This listing pairs compounds with measured EC50.
REPORTED_PROPERTY: EC50 (µM)

{"COMPOUND": "C[C@H](NP(=O)(OC[C@@]1(C#N)O[C@@H](c2ccc3c(N)ncnn23)[C@H](O)[C@@H]1O)Oc1ccccc1)C(=O)O[C@H]1CC[C@H](N)CC1 (stereo partly drawn) [Example 33]", "REPORTED_PROPERTY": "EC50", "UNIT_STRING": "µM", "VALUE_OBSERVED": 27}
{"COMPOUND": "C[C@H](NP(=O)(OC[C@@]1(C#N)O[C@@H](c2ccc3c(N)ncnn23)[C@H](O)[C@@H]1O)Oc1ccccc1)C(=O)O[C@@H]1CCN(C)C1 (mixture of isomers) [Example 61]", "REPORTED_PROPERTY": "EC50", "UNIT_STRING": "µM", "VALUE_OBSERVED": 23.2}
{"COMPOUND": "C[C@H](NP(=O)(OC[C@@]1(C#N)O[C@@H](c2ccc3c(N)ncnn23)[C@H](O)[C@@H]1O)Oc1ccccc1)C(=O)O[C@H]1CCNC1 (stereo partly drawn) [Example 122]", "REPORTED_PROPERTY": "EC50", "UNIT_STRING": "µM", "VALUE_OBSERVED": 29.3}

* * *

- System: HRV16
- EXPERIMENT_DESCRIPTION: HRV16 HELA EC50 (cytopathic effect in H1-HeLa cells)
- Format: cell-based
- MEASUREMENT_CONTEXT: 96 h, H1-HeLa cells, 33° C., read-out: HRV16 HELA EC50
- Procedure: H1-HeLa cells, cultured in complete DMEM medium containing 10% heat-inactivated FBS and 1% Penicillin/Streptomycin, were seeded in 96 well plates at 3000 cells/well one day prior to compound dosing and infection. The antiviral activity of each compound was measured in triplicate. […] Cell viability was determined by removing 100 μL of culture medium and adding 100 μL of Cell-Titer Glo viability reagent. […]
Listing of entries alongside the reported EC50.

{"COMPOUND": "CC(C)OC(=O)C1(NP(=O)(OC[C@@]2(C#N)O[C@@H](c3ccc4c(N)ncnn34)[C@H](O)[C@@H]2O)Oc2ccccc2)CCC1 (mixture of isomers)", "TARGET_SYSTEM": "HRV16", "QUALIFIER": ">", "EC50 (µM)": 42.2}
{"COMPOUND": "C[C@H](NP(=O)(OC[C@@]1(C#N)O[C@@H](c2ccc3c(N)ncnn23)[C@H](O)[C@@H]1O)Oc1ccccc1)C(=O)OC1CCOC(C)(C)C1 (some centres unmarked)", "TARGET_SYSTEM": "HRV16", "QUALIFIER": "=", "EC50 (µM)": 25.9}
{"COMPOUND": "CC(C)[C@H](NC(=O)OC(C)(C)C)C(=O)OCCNP(=O)(OC[C@@]1(C#N)O[C@@H](c2ccc3c(N)ncnn23)[C@H](O)[C@@H]1O)Oc1ccccc1 (some centres unmarked)", "TARGET_SYSTEM": "HRV16", "QUALIFIER": "=", "EC50 (µM)": 28.3}
{"COMPOUND": "N#C[C@]1(COP(=O)(NCC(=O)OC2CCCC2)Oc2ccccc2)O[C@@H](c2ccc3c(N)ncnn23)[C@H](O)[C@@H]1O (mixture of isomers) [Example 112]", "TARGET_SYSTEM": "HRV16", "QUALIFIER": "=", "EC50 (µM)": 3.69}
{"COMPOUND": "C[C@H](NP(=O)(OC[C@@]1(C#N)O[C@@H](c2ccc3c(N)ncnn23)[C@H](O)[C@@H]1O)Oc1ccccc1)C(=O)O[C@H]1CC[C@H](C(F)(F)F)CC1 (some centres unmarked)", "TARGET_SYSTEM": "HRV16", "QUALIFIER": "=", "EC50 (µM)": 1.31}
